Collected from the literature: pIC50 of various compounds toward human PDE10A2 (Homo sapiens (Human)).
# log scale: pIC50 equals minus log10 of the concentration in mol/L

Enquiry: // map Cn1ncc(NC(=O)c2nc(C3CC3)c(C3CCCO3)nc2Nc2cncnc2)c1C(=O)NCCF (centres unmarked) to recorded pIC50 (system: human PDE10A2 (Homo sapiens (Human)))
Return: 6.91

Enquiry: // map CC1(C)C(=O)N([C@H]2C[C@H](Nc3ccc(C(F)(F)F)cn3)C2)c2ncccc21 to recorded pIC50 (system: human PDE10A2 (Homo sapiens (Human)))
Return: 8.60

Enquiry: // map Cc1cccc(C(=O)Nc2ccn3cc(-c4ccccc4)nc3n2)n1 to recorded pIC50 (system: human PDE10A2 (Homo sapiens (Human)))
Return: 6.49

###

Collected from the literature: pIC50 of various molecules toward UniProt:Q9Y233.
# log scale: pIC50 equals minus log10 of the concentration in mol/L

Enquiry: Given the molecule CC(C)n1ncc(Cl)c1C(=O)Nc1ccn2cc(-c3ccccc3)nc2n1 , what is its reported pIC50?
Return: 6.98

Enquiry: Given the molecule CC(C)n1c(COc2ccc(-c3nn(C)cc3-c3ccncc3)cc2)nc2ccccc21 , what is its reported pIC50?
Return: 8.05

Enquiry: Given the molecule Cc1cc(C)n2nc(CCc3ccc4ccccc4n3)nc2n1 , what is its reported pIC50?
Return: 7.14

Enquiry: Given the molecule CC(C)c1cc(C(=O)N2CCOCC2)c(NC(=O)c2nc(C3CC3)ccc2Nc2cncnc2)s1 , what is its reported pIC50?
Return: 7.56

###

Collected from the literature: IC50 of various molecules toward human PDE10A2 (Homo sapiens (Human), UniProt Q9Y233).
Give just the number in nM; leave the unit off.

Enquiry: // map Cc1nn2ccc(C#Cc3nc(-c4ccccc4)cn3C)nc2c1C to recorded IC50 (system: human PDE10A2 (Homo sapiens (Human), UniProt Q9Y233))
Return: 1.5

Enquiry: // map CC(C)NC(=O)c1ncccc1NC(=O)c1nc(C2CC2)cnc1Nc1cncnc1 to recorded IC50 (system: human PDE10A2 (Homo sapiens (Human), UniProt Q9Y233))
Return: 4.9

Enquiry: // map Cc1cnc2c(C(=O)NC3(c4ccc(C(F)(F)F)cn4)CCOCC3)c(C)nn2c1 to recorded IC50 (system: human PDE10A2 (Homo sapiens (Human), UniProt Q9Y233))
Return: 9920

Enquiry: // map CC1(C)C(=O)N([C@H]2C[C@H](Nc3ccc(C#N)cn3)C2)c2ncccc21 to recorded IC50 (system: human PDE10A2 (Homo sapiens (Human), UniProt Q9Y233))
Return: 15.9

Enquiry: // map Cc1nc(C(F)(F)F)n2nc(CCc3nc(N4CCCC4)nn3C)nc2c1C to recorded IC50 (system: human PDE10A2 (Homo sapiens (Human), UniProt Q9Y233))
Return: 10.2

Enquiry: // map Cc1cccn2nc(CCc3nc(-c4cncs4)cn3C)nc12 to recorded IC50 (system: human PDE10A2 (Homo sapiens (Human), UniProt Q9Y233))
Return: 36

Enquiry: // map O=c1n(C2CC2)c2nccnc2n1[C@H]1C[C@H](Nc2ncc3ccc(F)cc3n2)C1 to recorded IC50 (system: human PDE10A2 (Homo sapiens (Human), UniProt Q9Y233))
Return: 0.896

Enquiry: // map O=C(Nc1cccnc1C(=O)N1CCCC1)c1nc(C2CC2)cnc1Nc1cncnc1 to recorded IC50 (system: human PDE10A2 (Homo sapiens (Human), UniProt Q9Y233))
Return: 2.5
